Provenance of the data: PubChem BioAssay

System: Fibrinogen (Alexa647-labelled)
assay details: Alexa647-fibrinogen binding to printed small molecules – biochemical, small-molecule microarray, 635/667 nm fluorescence, artefact control for SMM control-protein annotation, profiling panel (AID 1131);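 note: z-score merges 667 nm fluorescence with per-spot signal-to-noise over triplicate slides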
details: fibrinogen-A647 binding fluorescence, higher = more signal
Rule: composite z-score under 0.9 gives Condition not met, otherwise Condition met.

Qu. Does the compound `O=C(O)[C@@]1(CCS(=O)(=O)c2ccccc2)N=C(c2ccc(OCCCO)cc2)O[C@H]1c1ccccc1` have recorded composite z-score that is 0.9 or more?
Ans. Condition met

###

assay details: compound effects on differentiated 3T3-L1 adipocyte viability – cell-based, 3T3-L1 adipocytes, calcein-AM fluorescence, 48 h, basal, profiling panel (AID 1163); note: test concentration not given here
details: 3T3-L1 adipocytes viability, higher = more signal
// boundary case: z-score equal to 0.1 maps to f; strictly smaller maps to t

compound: C=CCC(OC(C)=O)[C@@H]1[C@@H](N(Cc2ccc(-c3cccc(C(F)(F)F)c3)o2)C(=O)c2cccc3ccccc23)c2cc(OCCCO)ccc2N1C(=O)Cc1ccc2ccccc2c1 (stereo not given in full)
assigned label: f
//
compound: CCCC(=O)N(CCc1c[nH]c2ccccc12)[C@@H]1CC(C(=O)NCCO)=C[C@H](Oc2c(I)cc(CO)cc2OC)[C@H]1O
assigned label: t

Qu. Dear colleague, could you confirm whether z-score of `COc1ccc([C@H]2C[C@H]3C(Br)=C[C@@]2(CO)C(=O)[C@]32CO2)cc1` falls below 0.1? Thanks.
Ans. t

Qu. Dear colleague, could you confirm whether z-score of O=C(O)C1N=C(c2ccc(OCCCO)cc2)N(c2ccccc2)O1 (stereo not given) falls below 0.1? Thanks.
Ans. f

Qu. Dear colleague, could you confirm whether z-score of CC(C)N1CC=CC23O[C@@H]4C=CCOC(=O)[C@@H]4[C@H]2C(=O)N(CCCCCO)[C@@H]3C1=O (stereo not given in full) falls below 0.1? Thanks.
Ans. f

Qu. Dear colleague, could you confirm whether z-score of `CCCCC(=C=CC[C@H](O)c1cccc(OCCO)c1)C[C@H](O)c1ccccn1` falls below 0.1? Thanks.
Ans. f

Qu. Dear colleague, could you confirm whether z-score of `COC(=O)c1c(CC[C@@H](CO)NC(=O)N[C@H](Cc2ccccc2)Cn2cc(-c3ccccn3)nn2)oc(C(C)=O)c1C(=O)OC` falls below 0.1? Thanks.
Ans. f

Qu. Dear colleague, could you confirm whether z-score of `O=C(CS)NCCCCCNC(=O)[C@H]1C[C@H]2C(=O)NCC(=O)N2[C@H]1c1cccc(OCCO)c1` falls below 0.1? Thanks.
Ans. t

Qu. Dear colleague, could you confirm whether z-score of CCCCCCCCCCC(O)C1C=CC2C(=O)NC(=O)C2N1Nc1ccc(Cl)cc1Cl (stereo not given) falls below 0.1? Thanks.
Ans. t

Qu. Dear colleague, could you confirm whether z-score of `Cc1ccc(S[C@]2(C(=O)O)CC(=O)N(C(C)C)[C@@H]2c2ccc(CO)cc2)cc1` falls below 0.1? Thanks.
Ans. f

Qu. Dear colleague, could you confirm whether z-score of `COC(=O)[C@@]1(Cc2ccccc2)[C@H]2c3cc(C(=O)N4CCCC4)n(Cc4ccc(O)c(OC)c4)c3C[C@H]2CN1C(=O)c1ccccc1` falls below 0.1? Thanks.
Ans. t

Qu. Dear colleague, could you confirm whether z-score of `COCCOC(=O)N1C(=O)[C@@]2(c3cc(C#Cc4ccc(OC)cc4)ccc31)[C@H](c1ccc(O)cc1)N1[C@H](c3ccccc3)[C@H](c3ccccc3)OC(=O)[C@H]1[C@@H]2C(=O)Nc1nc2ccccc2s1` falls below 0.1? Thanks.
Ans. f

Qu. Dear colleague, could you confirm whether z-score of `O=C(CS)NCCCCCNC(=O)[C@@H]1C[C@@H]2C(=O)NCC(=O)N2[C@@H]1c1cccc(OCCO)c1` falls below 0.1? Thanks.
Ans. f

Qu. Dear colleague, could you confirm whether z-score of `COCCOC(=O)N1C(=O)[C@@]2(c3cc(C#CC4(O)CCCCCC4)ccc31)[C@H](C(=O)Nc1nc3ccccc3s1)[C@H]1C(=O)O[C@H](c3ccccc3)[C@H](c3ccccc3)N1[C@@H]2c1ccccc1OCCO` falls below 0.1? Thanks.
Ans. f

###

assay details: blockers of DNA damage checkpoint Chk1 activation – imaging, HeLa, hydroxyurea, phospho-Chk1 antibody, percent positive cells, primary screen (AID 1186)
details: hydroxyurea-induced phospho-Chk1 immunofluorescence imaging, higher = more signal
Active and inactive are the calls of the source. The rule behind the calls is not given here.
Documented z-score across a set of compounds

Sample records with z-score:
compound: CCCCC(=C=CC[C@H](O)c1cccc(OCCO)c1)C[C@H](O)c1ccccn1
z-score: -0.949 (inactive)
--
compound: Cc1ccc(C2C3C(=O)CC4C(=O)N(c5ccccc5)C(=O)C4C3CN2S(=O)(=O)c2ccc(C)cc2)cc1 (stereo not drawn)
z-score: 0.951 (inactive)
--
compound: O=c1cccc(-c2ccccc2Cl)o1
z-score: 0.266 (inactive)

Value of z-score reported for the compound `C=C(/C(=C/C[C@H](OC(C)=O)c1ccc(OCCO)cc1)c1cc(C(=O)OC)ccc1OC)C(C)C` is 0.418 (inactive)

Value of z-score reported for the compound [N-]=[N+]=Nc1ccccc1C[C@]1(C(=O)NCC(O)CO)N=C(c2ccc(OCCCO)cc2)O[C@H]1c1ccccc1 (stereo partly drawn) is 0.178 (inactive)

Value of z-score reported for the compound `C[N+](C)(C)CCCC[C@@H]1NC(=O)[C@@H]2C[C@H](C(=O)NCCCCCN)[C@H](c3ccc(O)cc3)N2C1=O` is -0.661 (inactive)

Value of z-score reported for the compound `C#CCN(C/C=C/c1ccccc1)[C@H](CO)c1ccccc1` is -0.209 (inactive)

Value of z-score reported for the compound `COc1ccc([Si](C)(C)[C@@H]2[C@@H](CCn3cc([C@H](O)c4ccccc4)nn3)O[C@]3(C(=O)N(Cc4cccc(N5CCC5=O)c4)c4ccccc43)[C@H]2C)cc1` is -0.529 (inactive)

###

assay details: small molecules captured by biotinylated probe aFST – biochemical, small-molecule microarray, fluorescence 635/667, stem cell growth factor project, primary screen (AID 1086);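 note: score merges 667 nm fluorescence with signal-to-noise of each printed compound spot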
details: higher = more signal
Documented composite z-score across a set of compounds
When you answer, write just the number.

compound: COCC(=C=CC[C@@H](O)c1ccc(OCCO)cc1)C[C@@H](O)c1ccccn1
composite z-score: 0.423

compound: CCCCN1CC=CC23O[C@@H]4/C=C\CCCOC(=O)C4[C@H]2C(=O)N(CCCCCO)[C@@H]3C1=O (some centres undefined)
composite z-score: -0.804

compound: CN(C)CCCCCCNC(=O)[C@@H]1C[C@@H]2C(=O)N[C@@H](CCCC[N+](C)(C)C)C(=O)N2[C@@H]1c1ccc(O)cc1
composite z-score: -0.334

For the next question, use this compound.
Value of composite z-score reported for the compound `CCCC(=O)N(CCc1c[nH]c2ccccc12)[C@@H]1CC(C(=O)NCCO)=C[C@H](Oc2c(I)cc(CO)cc2OC)[C@H]1O` is -0.0945

###

assay details: compound effects on differentiated 3T3-L1 adipocyte viability – cell-based, 3T3-L1 adipocytes, calcein-AM fluorescence, 48 h, basal, profiling panel (AID 1163); note: test concentration not given here
details: 3T3-L1 adipocytes viability, higher = more signal
assay endpoint: z-score
When you answer, write just the number.

Value of z-score reported for the molecule `COC(=O)C[C@H]1O[C@@H](CCc2ccccc2)[C@@H](C)[C@@H]1[Si](C)(C)c1ccc(OC)cc1` is 1.27

Value of z-score reported for the molecule `CCOC(=O)C1=CC[C@@H](c2ccccc2)N(S(=O)(=O)c2ccc(C)cc2)[C@H]1c1ccc(CC)cc1` is -0.932

Value of z-score reported for the molecule `C=CCN1Cc2ccccc2[C@@H]2OC(c3ccc(OCCCO)cc3)=N[C@]2(CCS(=O)(=O)c2ccccc2)C1=O` is 0.771

###

Documented composite Z-score across a set of molecules
assay details: probe aXIP binding to arrayed compounds – biochemical, NeuroSMM set, 635/667 nm fluorescence, primary screen (AID 1119);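 note: probe is the protein aXip251-270 applied at 1 µg/mL to compound-printed slides; binding of probe to printed compounds measured as 667 nm fluorescence plus signal to noise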
details: small-molecule microarray, higher = more signal, called active from +8 up or from −8 down
When you answer, write just the number.

molecule: C=CCN(Cc1ccccc1)C(=O)C(c1cccs1)N(C(=O)/C=C\C(=O)O)c1ccc(CCOCCO)cc1 (stereo not given)
composite Z-score: 0.0165
//
molecule: COc1ccc(CCNC(=O)[C@@]2(C)c3ccccc3C(=O)N(c3ccc(C)cn3)[C@H]2c2ccc(CO)cc2)cc1
composite Z-score: -0.133
//
molecule: O=C1C2C=CC(C(O)C=Cc3ccc([N+](=O)[O-])cc3)N(n3cnnc3)C2C(=O)N1Cc1ccccc1 (stereo not given)
composite Z-score: 0.263
//
molecule: Cc1ccc(/C=C/C=O)cc1
composite Z-score: 0.421

Value of composite Z-score reported for the molecule `Cc1ccc(S[C@]2(C(=O)O)CC(=O)N(Cc3ccccc3C(F)(F)F)[C@@H]2c2ccc(CO)cc2I)cc1` is 0.286
